- Tested on: Phakopsora pachyrhizi (strain containing the amino acid substitution F129L in the mitochondrial cytochrome b protein)
- assay-details: Use example 2: protective control of soybean rust on soybeans (PHAKPA P6), inoculation six days after spraying
- Assay type: in vivo
- condition-context: % diseased leaf area on soybean, 16 ppm spray, inoculation six days after treatment, untreated controls usually >85 %
quantity-name: PHAKPA Disease level (%) P6 at 16 ppm

smiles-entry: CO/N=C(/C(=O)OC)c1cccc(C)c1CO/N=C(\C)C#Cc1ccc(Cl)cc1
reading: 35

smiles-entry: CO/N=C(/C(=O)OC)c1ccccc1CO/N=C(\C)C#Cc1cccc2c1OC(F)(F)O2
reading: 22

smiles-entry: CO/N=C(/C(=O)OC)c1cccc(C)c1CO/N=C(\C)C#Cc1ccc(C(F)(F)F)cc1
reading: 60

smiles-entry: CO/N=C(/C(=O)OC)c1ccccc1CO/N=C(\C)C#Cc1ccc(OCC(F)(F)F)cc1
reading: 93

smiles-entry: CNC(=O)/C(=N/OC)c1cccc(C)c1CO/N=C(\C)C#Cc1cccc(Br)c1
reading: 0

smiles-entry: CO/N=C(/C(=O)OC)c1ccccc1CO/N=C(\C)C#Cc1cccc(Br)c1
reading: 43

smiles-entry: CNC(=O)/C(=N/OC)c1ccccc1CO/N=C(\C)C#Cc1ccc(OC2CC2)cc1
reading: 13

smiles-entry: CO/N=C(/C(=O)OC)c1cccc(C)c1CO/N=C(\C)C#Cc1ccccc1Br
reading: 22

---

- Test system: Phakopsora pachyrhizi (strain containing the amino acid substitution F129L in the mitochondrial cytochrome b protein)
- assay-details: Use example 2: protective control of soybean rust on soybeans (PHAKPA P6), inoculation six days after spraying
- Type: in vivo
- condition-context: % diseased leaf area on soybean, 16 ppm spray, inoculation six days after treatment, untreated controls usually >85 %
// classify: if (PHAKPA Disease level (%) P6 at 16 ppm < 2%) label 1 else label 0

compound: CO/N=C(/C(=O)OC)c1cccc(C)c1CO/N=C(\C)C#Cc1ccccc1C [Example 23]
category: label 1

compound: CNC(=O)/C(=N/OC)c1ccccc1CO/N=C(\C)C#Cc1ccc(Oc2ccc(F)cc2)cc1 [Example 111]
category: label 0

compound: CO/C=C(/C(=O)OC)c1ccccc1CO/N=C(\C)C#Cc1ccc(F)cc1 [Example 114]
category: label 1

compound: CNC(=O)/C(=N/OC)c1ccccc1CO/N=C(\C)C#Cc1ccc(OC(F)(F)F)cc1 [Example 11]
category: label 0

compound: CNC(=O)/C(=N/OC)c1ccccc1CO/N=C(\C)C#Cc1ccccc1Cl [Example 76]
category: label 0

compound: CNC(=O)/C(=N/OC)c1cccc(C)c1CO/N=C(\C)C#Cc1ccccc1F [Example 63]
category: label 1

---

- System: Phakopsora pachyrhizi (strain containing the amino acid substitution F129L in the mitochondrial cytochrome b protein)
- assay-details: Use example 2: protective control of soybean rust on soybeans (PHAKPA P6), inoculation six days after spraying
- Assay type: in vivo
- condition-context: % diseased leaf area on soybean, 16 ppm spray, inoculation six days after treatment, untreated controls usually >85 %
// map PHAKPA Disease level (%) P6 at 16 ppm to label using group 1: < 6%; group 2: ≥ 6% and < 60%; group 3: ≥ 60%

smiles-entry: CNC(=O)/C(=N/OC)c1ccccc1CO/N=C(\C)C#Cc1ccc2c(c1)OC(F)(F)O2
category: group 3
//
smiles-entry: CO/N=C(/C(=O)OC)c1cccc(C)c1CO/N=C(\C)C#Cc1cccc(C(F)(F)F)c1
category: group 1
//
smiles-entry: CNC(=O)/C(=N/OC)c1cccc(C)c1CO/N=C(\C)C#Cc1ccccc1C(F)(F)F
category: group 1
//
smiles-entry: CO/N=C(/C(=O)OC)c1ccccc1CO/N=C(\C)C#Cc1ccccc1
category: group 2
//
smiles-entry: CO/N=C(/C(=O)OC)c1ccccc1CO/N=C(\C)C#Cc1cccc(C(F)(F)F)c1
category: group 3
//
smiles-entry: CO/N=C(/C(=O)OC)c1cccc(C)c1CO/N=C(\C)C#Cc1cccc(Cl)c1
category: group 2
//
smiles-entry: CO/N=C(/C(=O)OC)c1ccccc1CO/N=C(\C)C#Cc1ccc2c(c1)OC(F)(F)O2
category: group 3
//
smiles-entry: CO/N=C(/C(=O)OC)c1ccccc1CO/N=C(\C)C#Cc1ccc(OC(F)(F)F)cc1C1CC1
category: group 2
//
smiles-entry: CNC(=O)/C(=N/OC)c1cccc(C)c1CO/N=C(\C)C#Cc1ccccc1Cl
category: group 1
//
smiles-entry: CNC(=O)/C(=N/OC)c1ccccc1CO/N=C(/C#Cc1ccc(Cl)cc1)COC
category: group 2
//
smiles-entry: CNC(=O)/C(=N/OC)c1cccc(C)c1CO/N=C(\C)C#Cc1cccc(C)c1
category: group 1
//
smiles-entry: CO/N=C(/C(=O)OC)c1ccccc1CO/N=C(\C)C#Cc1ccc(Cl)cc1
category: group 3
//
smiles-entry: CO/N=C(/C(=O)OC)c1ccccc1CO/N=C(\C)C#Cc1ccccc1F
category: group 2
//
smiles-entry: CNC(=O)/C(=N/OC)c1ccccc1CO/N=C(\C)C#Cc1cccc(C(F)(F)F)c1
category: group 1
//
smiles-entry: CNC(=O)/C(=N/OC)c1ccccc1CO/N=C(\C)C#Cc1ccc(C2CC2)cc1
category: group 2

Origin of values: patent US20230303483A1
